system: speedwell (bird's-eye speedwell, Veronica persica); assay: Test D controlled growth environment herbicide test, pre- and postemergence; format: in vivo; conditions: postemergence, 62 g ai/ha; scale 0 to 100, 0 no effect, 100 complete control
Source text: […]
Attribute measured: Plant response rating, Speedwell
Give your answer as a number; write no unit.

These recorded examples may help you get a feel for the data.
[
  {
    "Input smiles": "Cc1cc(C)c2ccccc2c1-c1c(O)c(C)nn(C)c1=O",
    "Plant response rating, Speedwell": 100
  },
  {
    "Input smiles": "Cc1nn(C)c(=O)c(-c2ccc(Br)c3ccccc23)c1O",
    "Plant response rating, Speedwell": 100
  },
  {
    "Input smiles": "COC(=O)Oc1c(C)nn(C)c(=O)c1-c1c(C)sc2ccc(C)cc12",
    "Plant response rating, Speedwell": 75
  },
  {
    "Input smiles": "Cc1nn(C)c(=O)c(-c2c(C)sc3ccc(Br)cc23)c1O",
    "Plant response rating, Speedwell": 60
  }
]

Next compound, please.
With speedwell (bird's-eye speedwell, Veronica persica) as the test system, `Cc1nn(C)c(=O)c(-c2cccc3ccc(Br)cc23)c1O` showed Plant response rating, Speedwell of 65

---

Form field: Plant response rating, Morningglory (one value per entry).
test system: momingglory (Ipomoea coccinea); assay: Test E greenhouse herbicide test, pre- and postemergence; format: in vivo; settings: 125 g ai/ha, Preemergence; scale 0 to 100 (0 no effect, 100 complete control)
Give your answer as a number; write no unit.

[
  {
    "Input smiles": "Cc1ccc2ccccc2c1-c1c(OC(=O)OC(C)C)c(C)nn(C)c1=O",
    "Plant response rating, Morningglory": 80
  },
  {
    "Input smiles": "Cc1cc(C)c2sc(C)c(-c3c(O)c(C)nn(C)c3=O)c2c1",
    "Plant response rating, Morningglory": 100
  },
  {
    "Input smiles": "Cc1cc2ccccc2c(-c2c(O)c(C)nn(C)c2=O)c1C",
    "Plant response rating, Morningglory": 35
  }
]

Next compound, please.
Consider `CCc1sc2ccc(C)cc2c1-c1c(O)c(C)nn(C)c1=O` . Its measured Plant response rating, Morningglory is 100

---

Form field: Plant response rating, Mustard, Wild (one value per entry).
test system: mustard, wild (wild mustard, Sinapis arvensis); assay: Test D controlled growth environment herbicide test, pre- and postemergence; assay type: in vivo; settings: postemergence, 62 g ai/ha; scale 0 to 100, 0 no effect, 100 complete control
Give your answer as a number; write no unit.

[
  {
    "Input smiles": "CCCC(=O)Oc1c(C)nn(C)c(=O)c1-c1c(C)sc2ccc(C)cc12",
    "Plant response rating, Mustard, Wild": 25
  }
]

Consider `Cc1nn(C)c(=O)c(-c2ccc(F)c3ccccc23)c1O` . Its measured Plant response rating, Mustard, Wild is 100

Consider `COC(=O)Oc1c(C)nn(C)c(=O)c1-c1c(C)sc2ccc(C)cc12` . Its measured Plant response rating, Mustard, Wild is 50

Consider `Cc1nn(C)c(=O)c(-c2c(C)sc3ccc(Br)cc23)c1O` . Its measured Plant response rating, Mustard, Wild is 95

Consider `Cn1nc(Br)c(O)c(-c2cccc3ccccc23)c1=O` . Its measured Plant response rating, Mustard, Wild is 100

Consider `Cc1ccc2ccccc2c1-c1c(O)c(Br)nn(C)c1=O` . Its measured Plant response rating, Mustard, Wild is 95

---

Form field: Plant response rating, Velvetleaf (one value per entry).
system: velvetleaf (Abutilon theophrasti); assay: Test C greenhouse herbicide test, pre- and postemergence; type: in vivo; details: Postemergence, 31 g ai/ha; scale 0 to 100 (0 no effect, 100 complete control)
Give your answer as a number; write no unit.

These recorded examples may help you get a feel for the data.
[
  {
    "Compound": "COC(=O)Oc1c(OC)nn(C)c(=O)c1-c1c(C)ccc2ccccc12 [Compound 136]",
    "Target of assay": "velvetleaf (Abutilon theophrasti)",
    "Plant response rating, Velvetleaf": 75
  },
  {
    "Compound": "Cc1nn(C)c(=O)c(-c2c([N+](=O)[O-])ccc3ccccc23)c1O [Compound 165]",
    "Target of assay": "velvetleaf (Abutilon theophrasti)",
    "Plant response rating, Velvetleaf": 20
  },
  {
    "Compound": "Cc1nn(C)c(=O)c(-c2ccc(Cl)c3ccccc23)c1O [Compound 139]",
    "Target of assay": "velvetleaf (Abutilon theophrasti)",
    "Plant response rating, Velvetleaf": 70
  },
  {
    "Compound": "Cc1nn(C)c(=O)c(-c2cccc3ccc(Br)cc23)c1O [Compound 126]",
    "Target of assay": "velvetleaf (Abutilon theophrasti)",
    "Plant response rating, Velvetleaf": 30
  },
  {
    "Compound": "CC(=O)Oc1c(C)nn(C)c(=O)c1-c1c(C)sc2ccc(Cl)cc12 [Compound 108]",
    "Target of assay": "velvetleaf (Abutilon theophrasti)",
    "Plant response rating, Velvetleaf": 70
  },
  {
    "Compound": "COC(=O)Oc1c(C)nn(C)c(=O)c1-c1ccc(Br)c2ccccc12 [Compound 145]",
    "Target of assay": "velvetleaf (Abutilon theophrasti)",
    "Plant response rating, Velvetleaf": 85
  },
  {
    "Compound": "CC(=O)Oc1c(C)nn(C)c(=O)c1-c1c(C)sc2ccc(C(F)(F)F)cc12 [Compound 132]",
    "Target of assay": "velvetleaf (Abutilon theophrasti)",
    "Plant response rating, Velvetleaf": 30
  }
]

Consider CCCC(=O)Oc1c(C)nn(C)c(=O)c1-c1c(CC)sc2ccc(C)cc12 [Compound 107] . Its measured Plant response rating, Velvetleaf is 75

---

test system: ryegrass, Italian (Italian ryegrass, Lolium multiflorum); assay: Test C greenhouse herbicide test, pre- and postemergence; assay type: in vivo; conditions: postemergence, 62 g ai/ha; scale 0 to 100, 0 no effect, 100 complete control
Returns satisfied if the recorded Ryegrass, Italian plant response rating is greater than or equal to 80, and not satisfied otherwise.

Answered examples (5):
[
  {
    "Compound": "Cc1cc(C)c2sc(C)c(-c3c(O)c(C)nn(C)c3=O)c2c1 [Compound 2]",
    "Discrete label": "not satisfied"
  },
  {
    "Compound": "CCc1ccc2ccccc2c1-c1c(O)c(C)nn(C)c1=O [Compound 32]",
    "Discrete label": "satisfied"
  },
  {
    "Compound": "Cc1ccc2sc(Br)c(-c3c(O)c(C)nn(C)c3=O)c2c1 [Compound 79]",
    "Discrete label": "not satisfied"
  },
  {
    "Compound": "COC(=O)Oc1c(C)nn(C)c(=O)c1-c1c(C)sc2ccc(C)cc12 [Compound 80]",
    "Discrete label": "satisfied"
  },
  {
    "Compound": "Cc1sc2ccccc2c1-c1c(O)c(Cl)nn(C)c1=O [Compound 89]",
    "Discrete label": "not satisfied"
  }
]

Q: Assess whether reported Ryegrass, Italian plant response rating for CCc1sc2c(C)cc(C)cc2c1-c1c(O)c(C)nn(C)c1=O [Compound 57] sits at 80 or higher.
Ans: not satisfied

Q: Assess whether reported Ryegrass, Italian plant response rating for Cc1ccc2ccccc2c1-c1c(OC(=O)OC(C)C)c(C)nn(C)c1=O [Compound 72] sits at 80 or higher.
Ans: satisfied

Q: Assess whether reported Ryegrass, Italian plant response rating for Cc1nn(C)c(=O)c(-c2c(C)sc3c(C)cc(Cl)cc23)c1O [Compound 35] sits at 80 or higher.
Ans: not satisfied

Q: Assess whether reported Ryegrass, Italian plant response rating for Cc1nn(C)c(=O)c(-c2cccc3ccccc23)c1O [Compound 11] sits at 80 or higher.
Ans: not satisfied

---

test system: blackgrass (Alopecurus myosuroides); test: Test C greenhouse herbicide test, pre- and postemergence; type: in vivo; settings: Postemergence, 62 g ai/ha; 0 to 100 scale (0 no effect, 100 complete control)
Attribute measured: Blackgrass plant response rating
Give your answer as a number; write no unit.

[
  {
    "Input smiles": "CCC(=O)Oc1c(C)nn(C)c(=O)c1-c1ccc(Br)c2ccccc12",
    "Blackgrass plant response rating": 45
  }
]

Consider `CC(=O)Oc1c(C)nn(C)c(=O)c1-c1c(C)sc2ccc(C(F)(F)F)cc12` . Its measured Blackgrass plant response rating is 5

Consider `COC(=O)Oc1c(OC)nn(C)c(=O)c1-c1c(C)ccc2ccccc12` . Its measured Blackgrass plant response rating is 5

Consider `Cc1nn(C)c(=O)c(-c2c([N+](=O)[O-])ccc3ccccc23)c1O` . Its measured Blackgrass plant response rating is 15

---

system: galium (catchweed bedstraw, Galium aparine); experiment: Test C greenhouse herbicide test, pre- and postemergence; type: in vivo; settings: Preemergence, 62 g ai/ha; scale 0 to 100, 0 is no effect, 100 is complete control
Form field: Plant response rating, Galium (one value per entry).
Give your answer as a number; write no unit.

[
  {
    "Molecule": "Cc1ccc2ccccc2c1-c1c(OC(=O)OC(C)C)c(C)nn(C)c1=O [Compound 72]",
    "Plant response rating, Galium": 90
  },
  {
    "Molecule": "CC(=O)Oc1c(Cl)nn(C)c(=O)c1-c1c(C)sc2ccc(C(F)(F)F)cc12 [Compound 152]",
    "Plant response rating, Galium": 45
  },
  {
    "Molecule": "Cc1nn(C)c(=O)c(-c2c(C)sc3c(C)cc(Cl)cc23)c1O [Compound 35]",
    "Plant response rating, Galium": 95
  },
  {
    "Molecule": "Cn1nc(Br)c(O)c(-c2cccc3ccccc23)c1=O [Compound 20]",
    "Plant response rating, Galium": 100
  },
  {
    "Molecule": "Cc1nn(C)c(=O)c(-c2c(C)sc3ccc(C(F)(F)F)cc23)c1O [Compound 121]",
    "Plant response rating, Galium": 90
  }
]

With galium (catchweed bedstraw, Galium aparine) as the test system, Cc1cc(C)c2ccccc2c1-c1c(O)c(C)nn(C)c1=O [Compound 21] showed Plant response rating, Galium of 98

With galium (catchweed bedstraw, Galium aparine) as the test system, Cc1cc2ccccc2c(-c2c(O)c(C)nn(C)c2=O)c1C [Compound 34] showed Plant response rating, Galium of 95
